Each recorded value in this set is attributed to patent US20210324080A1.

This section presents binders with their documented IL-2 secretion, pg/ml, at 1.1 ug/ml, N = 2 values.
- assay.target: T1, CTLA-4 on human T lymphocytes (PBMC, CD3+ T cells) (human, UniProt P16410 36-223)
- T1 sequence (looked up): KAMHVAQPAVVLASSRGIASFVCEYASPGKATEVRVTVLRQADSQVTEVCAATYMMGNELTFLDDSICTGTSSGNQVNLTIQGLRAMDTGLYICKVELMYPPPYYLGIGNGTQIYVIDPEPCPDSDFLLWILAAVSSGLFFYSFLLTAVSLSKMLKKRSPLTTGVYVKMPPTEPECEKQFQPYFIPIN
- experimental.details: cell-based or functional assay
measured.property: IL-2 secretion, pg/ml, at 1.1 ug/ml, N = 2 (pg/mL)

INSERT INTO results (binder, result_value) VALUES
  ('40C4C6 fully human CTLA-4 antibody (human IgG1, kappa) (antibody, V domains shown, also called mAb09; mAb009) VH: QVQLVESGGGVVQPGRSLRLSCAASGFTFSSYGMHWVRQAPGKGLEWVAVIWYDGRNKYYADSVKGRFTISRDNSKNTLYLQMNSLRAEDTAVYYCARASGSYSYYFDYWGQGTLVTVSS VL: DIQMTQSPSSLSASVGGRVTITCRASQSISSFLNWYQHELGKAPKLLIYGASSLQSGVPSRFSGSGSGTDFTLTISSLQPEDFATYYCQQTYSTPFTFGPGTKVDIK', 3010),
  ('92C8B6 fully human CTLA-4 antibody (human IgG1, kappa) (antibody, V domains shown, also called mAb42; mAb042) VH: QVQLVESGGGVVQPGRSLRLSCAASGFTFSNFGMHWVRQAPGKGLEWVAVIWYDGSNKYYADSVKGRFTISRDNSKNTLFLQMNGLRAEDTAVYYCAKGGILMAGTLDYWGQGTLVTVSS VL: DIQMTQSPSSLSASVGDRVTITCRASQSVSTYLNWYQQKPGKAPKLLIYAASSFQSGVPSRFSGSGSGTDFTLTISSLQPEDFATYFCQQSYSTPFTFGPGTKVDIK', 2930),
  ('97A8D1 fully human CTLA-4 antibody (human IgG1, kappa) (antibody, V domains shown, also called mAb49; mAb049) VH: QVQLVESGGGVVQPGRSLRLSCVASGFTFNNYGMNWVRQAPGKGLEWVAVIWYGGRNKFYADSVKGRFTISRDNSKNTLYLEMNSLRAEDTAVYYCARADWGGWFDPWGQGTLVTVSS VL: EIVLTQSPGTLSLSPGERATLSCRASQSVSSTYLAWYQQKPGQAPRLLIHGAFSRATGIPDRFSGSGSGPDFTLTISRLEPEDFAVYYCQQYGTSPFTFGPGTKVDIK', 2610);
